Assignment: determine reported abundance fitness for the given variants.
B1: Dystrobrevin alpha, residues 235 to 294; numbered along this chain, Q9Y4J8 (parent)
chain: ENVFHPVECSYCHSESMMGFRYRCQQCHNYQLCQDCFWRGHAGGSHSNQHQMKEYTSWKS

Variants of: B1
assay_details: abundance fitness (aPCA) (normalised: wild type 0, dead -1); higher = more abundant; growth selection in yeast, the domain comes from the species named
assay_setup: Homo sapiens
Answer with the value's number alone.

I have this variant here, F4Q , and I need its recorded abundance fitness.
-0.152

I'd like to know its abundance fitness. The variant in question is R39P
-0.495

If you can, please state the reported abundance fitness value of A42N .
-0.077

Quick one: abundance fitness of C24L ?
-0.911

Which abundance fitness value is on record for H46N ?
-0.316

# lookup: abundance fitness of M52I
-0.3

What value of measured abundance fitness is listed for Y11D ?
-0.313

Any idea what abundance fitness was measured for R39G ?
0.011
